B1: SNX8 (parent)
chain: RMVPALPPKRMLGADREFIEARRR

- Variants of: B1
- assay.summary: protein stability index of a GFP-peptide fusion (GPS, HEK-293T) (PSI 1-6); higher = more stable;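 also: lentivirally expressed fusions sorted by FACS into six bins by GFP to DsRed ratio, PSI derived from sequencing read proportions per bin multiplied by bin number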
- assay.setup: c terminus: a fixed tail appended
Binned protein stability index; ranges: b0 (below 3), b1 (3 to below 4), b2 (4 or more)

Some solved cases for reference:
RMVPALPPKRMLGADREFIEARRY; b0
RMVPALPPKRMLGLDREFIEARRR; b1
RMVPALPPKRMLGADREFNEARRR; b1

Which protein stability index category applies to RMVPARPPKRMLGADREFIEARRR here? b2

Again, but for CMVPALPPKRMLGADREFIEARRR b1

Please do the same for RMVPALPPKRMLGADREFAEARRR as well. b2

Please give the result for RMVPALPPKRMLGADREFIEARVR too. b1

Here is the next variant: RMVTALPPKRMLGADREFIEARRR b1

Also check FMVPALPPKRMLGADREFIEARRR b0

Can you handle RMVPALPPKRMLGADREFIEAFRR next? b1

Same read-out for RMVPALPHKRMLGADREFIEARRR ? b1
